Where do the numbers come from? From patent US20250026733A1.

Test system: CYP2B6 mRNA expression
Details: human, hepatocytes, 24 h, 1 μM
reported-metric: Fold Change in mRNA Expression of CYP2B6 (fold)

compound | value-reported
Cl.[2H]C(C)(C)Nc1cc(-c2c[nH]c(C(=O)N[C@H](CO)c3cccc(Cl)c3)c2)c(Cl)cn1 [Formula 21A] | 1.08
[2H]C([2H])([2H])C([2H])(Nc1cc(-c2c[nH]c(C(=O)N[C@H](CO)c3cccc(Cl)c3)c2)c(Cl)cn1)C([2H])([2H])[2H] [Formula 18] | 1.36
[2H]C([2H])([2H])C(Nc1cc(-c2c[nH]c(C(=O)N[C@H](CO)c3cccc(Cl)c3)c2)c(Cl)cn1)C([2H])([2H])[2H] [Formula 19] | 1.47
CC(C)Nc1cc(-c2c[nH]c(C(=O)N[C@H](CO)c3cccc(Cl)c3)c2)c(Cl)cn1 [Ulixertinib, reference compound] | 1.25
